// reported Gaussia minus Italica difference for each item listed
Test: DUX4 transcriptional activity inhibition in cells – 293T cells, Gaussia and Italica luciferase, primary screen (AID 1224904)
Conditions: 293T-iDUX4 ZSCAN4-Gaussia luciferase reporter, 24 h; measured here: selective DUX4 reporter inhibition; stronger effect = lower value; concentration not given here
Out of some 37,000 compounds screened, about 290 (0.78%) were called active. About 10% were inconclusive and are not listed. Many of the other results were omitted from the sample, so actives are more common in it than they were.
Remember to follow the number with its unit.

{"SMILES_STRING": "COCC(=O)N(C[C@H]1N[C@H](CO)[C@H]1c1ccc(C2=CCCCC2)cc1)C(C)C", "Gaussia minus Italica difference": "-1.6%"}
{"SMILES_STRING": "COC(=O)[C@@H]1[C@@H](CO)[C@@H]2Cn3c(ccc(-c4ccccc4F)c3=O)[C@@H]2N1CC1CCOCC1", "Gaussia minus Italica difference": "-12.8%"}

// lookup Gaussia minus Italica difference for `CNC(=O)C[C@@H]1CC[C@H]2[C@H](COc3ccc(NC(=O)C4CC4)cc3C(=O)N2C)O1`
2.15%

Requested field: Gaussia minus Italica difference. Item: `CCCNC(=O)N1CCC2(CC1)CN(C(=O)c1cccnc1)[C@@H](CO)c1[nH]c3cc(OC)ccc3c12`
12.5%

Name the reported Gaussia minus Italica difference value associated with the compound `Cc1ccccc1S(=O)(=O)Nc1ccc2c(c1)C(=O)N(C)[C@@H]1CC[C@@H](CC(=O)O)O[C@@H]1CO2`
-1.73%

Form field: reported Gaussia minus Italica difference of `CCCNC(=O)[C@@H]1[C@@H](CO)[C@@H]2Cn3c(ccc(C4=CCCCC4)c3=O)[C@H]1N2CCC`
0.57%

* * *

Each entry below lists one item and its recorded Gaussia minus Italica difference value.
Assay: DUX4 transcriptional activity inhibition in cells – 293T cells, Gaussia and Italica luciferase, primary screen (AID 1224904)
Settings: 293T-iDUX4 ZSCAN4-Gaussia luciferase reporter, 24 h; measured here: selective DUX4 reporter inhibition; stronger effect = lower value; concentration not given here
Screen size: about 37,000 compounds; about 290 (0.78%) were called active. Another 10% or so got no clear call; they are omitted. The list comes from a sample in which actives are over-represented; it also holds close analogues and randomly drawn compounds.
Numeric answer only, unit % assumed.

Give its Gaussia minus Italica difference value. Item: `CCCNC(=O)[C@@H]1[C@@H](CO)[C@@H]2Cn3c(cccc3=O)[C@H]1N2C(=O)C1CCC1`
-2.29

* * *

Assay: DUX4 transcriptional activity inhibition in cells – 293T cells, Gaussia and Italica luciferase, primary screen (AID 1224904);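 as to activity change, negative = inhibition: 0% = median of neutral control wells and -100% = median of positive control wells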
Settings: 293T-iDUX4 ZSCAN4-Gaussia luciferase reporter, 24 h; stronger effect = lower value; concentration not given here
About 290 (0.78%) of roughly 37,000 compounds were called active. About 10% were inconclusive and are not listed. Shown is part of a subset that was picked to be rich in actives.
REPORTED_PROPERTY: activity change, negative = inhibition (%)
Field: numeric (%). Do not append units.

{"SMILES_STRING": "CC(C)[C@@H]1COCc2cn(nn2)CC[C@@H](C)C(=O)N1", "activity change, negative = inhibition / %": -4.81}
{"SMILES_STRING": "COc1ccc2c3c([nH]c2c1)[C@H](CO)N(C(=O)C1CCOCC1)CC31CN(S(C)(=O)=O)C1", "activity change, negative = inhibition / %": -4.43}
{"SMILES_STRING": "N#C[C@@H]1[C@@H](c2ccc(C#Cc3cccc(F)c3)cc2)[C@H](CO)N1C(=O)C1CCOCC1", "activity change, negative = inhibition / %": 1.6}

Which activity change, negative = inhibition value is on record for `OC[C@H]1[C@@H](c2ccc(C#CC3(O)CCCC3)cc2)[C@H]2CN(Cc3cncnc3)CCCCN21` ?
13.2
